- TARGET_OR_SYSTEM: Aβ42 (Homo sapiens)
- METHOD_DESCRIPTION: Th-T (thioflavin-T) assay of Aβ42 aggregation
- Assay type: biochemical
- COND: reading M26; Supplementary Fig. 47 source data
RECORDED_METRIC: Th-T fluorescence, mean of three wells
When you answer, write just the number.

INSERT INTO measurements (compound, reported) VALUES
  ('C=C1CCC2C(C)(CC(=O)C=C(C)C)C(O)CCC2(C)C1Cc1c(OC)oc(C)c(C)c1=O (stereo not drawn)', 3.525),
  ('C=C1CC[C@@H]2[C@](C)(CC[C@H]3O[C@H](C=C(C)C)C[C@@]23C)[C@@H]1Cc1c(O)c(C)c(C)oc1=O', 2.823),
  ('C=C1CC[C@H]2[C@]3(C)C[C@@H](C=C(C)C)O[C@H]3CC[C@]2(C)[C@@H]1Cc1c(OC)oc(CO)c(C)c1=O', 2.893),
  ('C=C1CCC2C(C)(CC(=O)C=C(C)C)C(O)CCC2(C)C1Cc1c(O)c(C)c(C)oc1=O (stereo not drawn)', 3.2675),
  ('C=C1CCC2C(C)(CC(=O)C=C(C)C)C(O)CCC2(C)C1Cc1c(OC)oc(CO)c(C)c1=O (stereo not drawn)', 3.016),
  ('C=C1CCC2C3(C)CC(C=C(C)C)OC3CCC2(C)C1Cc1c(OC)oc(C)c(C)c1=O (stereo not drawn)', 3.64),
  ('CC(C)=CCC/C(C)=C/CC/C(C)=C/CC/C(C)=C/Cc1c(O)c(C)c(C)oc1=O', 2.664),
  ('C=C1CC[C@H]2[C@]3(C)C[C@H](C=C(C)C)O[C@H]3CC[C@]2(C)[C@@H]1Cc1c(OC)oc(C)c(C)c1=O', 3.978),
  ('C=C1CC[C@H]2[C@]3(C)C[C@H](C=C(C)C)O[C@H]3CC[C@]2(C)[C@@H]1Cc1c(O)c(C)c(C)oc1=O', 2.797),
  ('C=C1CC[C@H]2[C@]3(C)C[C@H](C=C(C)C)O[C@H]3CC[C@]2(C)[C@@H]1Cc1c(OC)oc(CO)c(C)c1=O', 3.637);

Input line: Find Th-T fluorescence, mean of three wells for C=C1CC[C@H]2[C@]3(C)C[C@@H](C=C(C)C)O[C@H]3CC[C@]2(C)[C@@H]1Cc1c(O)c(C)c(C)oc1=O on Aβ42 (Homo sapiens) and write it down.
Output line: 2.4278

Input line: Find Th-T fluorescence, mean of three wells for C=C1CCC2C(C)(CCC=C(C)C)C(=O)CCC2(C)C1Cc1c(O)c(C)c(C)oc1=O (stereo not drawn) on Aβ42 (Homo sapiens) and write it down.
Output line: 2.003

====

- TARGET_OR_SYSTEM: Aβ42 (Homo sapiens, UniProt P05067)
- Sequence (P05067 672-713): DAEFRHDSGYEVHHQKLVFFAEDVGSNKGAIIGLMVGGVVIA
- METHOD_DESCRIPTION: Th-T (thioflavin-T) assay of Aβ42 aggregation
- Type: biochemical
- COND: compound at 50; reading M43 of time course
RECORDED_METRIC: Th-T fluorescence, mean of three wells

Examples with answers:
INSERT INTO assay_data (compound, recorded_metric, reported) VALUES
  ('C=C1CCC2C(C)(CCC=C(C)C)C(O)CCC2(C)C1Cc1c(OC)oc(C)c(C(=O)OC)c1=O (centres unmarked)', 'Th-T fluorescence, mean of three wells', 4.613),
  ('C=C1CCC2C(C)(CCC=C(C)C)C(O)CCC2(C)C1Cc1c(OC)oc(CO)c(C)c1=O (centres unmarked)', 'Th-T fluorescence, mean of three wells', 1.502),
  ('C=C1CCC2C(C)(CCC=C(C)C)C(O)CCC2(C)C1Cc1c(OC)oc(CO)c(C(=O)OC)c1=O (centres unmarked)', 'Th-T fluorescence, mean of three wells', 0.452),
  ('C=C1CC[C@@H]2[C@](C)(CC[C@H]3O[C@H](C=C(C)C)C[C@@]23C)[C@@H]1Cc1c(OC)oc(CO)c(C)c1=O', 'Th-T fluorescence, mean of three wells', 2.091);

Turning to the following compound.
Input line: Give Th-T fluorescence, mean of three wells for the following compound: C=C1CC[C@@H]2[C@](C)(CC[C@H]3O[C@H](C=C(C)C)C[C@@]23C)[C@@H]1Cc1c(OC)oc(CO)c(C(=O)OC)c1=O
Output line: 0.2141

====

- TARGET_OR_SYSTEM: Aβ42 (Homo sapiens)
- METHOD_DESCRIPTION: Th-T (thioflavin-T) assay of Aβ42 aggregation
- Format: biochemical
- COND: time course, reading M59
RECORDED_METRIC: Th-T fluorescence, mean of three wells
When you answer, write just the number.

INSERT INTO measurements (molecule, target_or_system, reported) VALUES
  ('C=C1CCC2C3(C)CC(C=C(C)C)OC3CCC2(C)C1Cc1c(OC)oc(C)c(C)c1=O (stereo not shown) [Compound 23]', 'Aβ42 (Homo sapiens)', 4.01),
  ('C=C1CC[C@H]2[C@]3(C)C[C@H](C=C(C)C)O[C@H]3CC[C@]2(C)[C@@H]1Cc1c(OC)oc(CO)c(C)c1=O [Compound 18]', 'Aβ42 (Homo sapiens)', 3.958),
  ('C=C1CCC2C(C)(CCC=C(C)C)C(=O)CCC2(C)C1Cc1c(O)c(C)c(C)oc1=O (stereo not shown) [Compound 8]', 'Aβ42 (Homo sapiens)', 2.2236);

Turning to the following molecule.
Input line: Give Th-T fluorescence, mean of three wells for the following molecule: CC(C)=CCC/C(C)=C/CC/C(C)=C/CC/C(C)=C/Cc1c(O)c(C)c(C)oc1=O [Compound 2]
Output line: 2.925

====

- TARGET_OR_SYSTEM: Aβ42 (Homo sapiens)
- METHOD_DESCRIPTION: Th-T (thioflavin-T) assay of Aβ42 aggregation
- Format: biochemical
- COND: head suffix _20 (concentration 20); reading M64
Mark n for Th-T fluorescence of Aβ42 (sheet Fig. 7a), mean of three wells values under 2, and y for everything at or above.

Solved cases (3 shown):
INSERT INTO results (compound, assigned_label) VALUES
  ('C=C1CCC2C(C)(CCC=C(C)C)C(O)CCC2(C)C1Cc1c(OC)oc(CO)c(C)c1=O (centres unmarked)', 'y'),
  ('C=C1CC[C@@H]2[C@](C)(CC[C@H]3O[C@H](C=C(C)C)C[C@@]23C)[C@@H]1Cc1c(OC)oc(CO)c(C)c1=O', 'y'),
  ('C=C1CCC2C(C)(CCC=C(C)C)C(O)CCC2(C)C1Cc1c(OC)oc(CO)c(C(=O)OC)c1=O (centres unmarked)', 'n');

Please find the next compound below.
Input line: Answer whether Th-T fluorescence of Aβ42 (sheet Fig. 7a), mean of three wells of C=C1CC[C@@H]2[C@](C)(CC[C@H]3O[C@H](C=C(C)C)C[C@@]23C)[C@@H]1Cc1c(OC)oc(CO)c(C(=O)OC)c1=O is greater than or equal to 2.
Output line: n

====

- TARGET_OR_SYSTEM: Aβ42 (Homo sapiens, UniProt P05067)
- METHOD_DESCRIPTION: Th-T (thioflavin-T) assay of Aβ42 aggregation
- Type: biochemical
- COND: head suffix _20 (concentration 20); reading M81
Reported values of Th-T fluorescence of Aβ42 (sheet Fig. 7a), mean of three wells for individual entries
When you answer, write just the number.

INSERT INTO results (compound, reported) VALUES
  ('C=C1CCC2C(C)(CCC=C(C)C)C(O)CCC2(C)C1Cc1c(OC)oc(CO)c(C)c1=O (centres unmarked)', 2.089);

Input line: Give Th-T fluorescence of Aβ42 (sheet Fig. 7a), mean of three wells for the following compound: C=C1CC[C@@H]2[C@](C)(CC[C@H]3O[C@H](C=C(C)C)C[C@@]23C)[C@@H]1Cc1c(OC)oc(CO)c(C)c1=O
Output line: 3.353

Input line: Give Th-T fluorescence of Aβ42 (sheet Fig. 7a), mean of three wells for the following compound: C=C1CCC2C(C)(CCC=C(C)C)C(O)CCC2(C)C1Cc1c(OC)oc(C)c(C(=O)OC)c1=O (centres unmarked)
Output line: 1.911

Input line: Give Th-T fluorescence of Aβ42 (sheet Fig. 7a), mean of three wells for the following compound: C=C1CC[C@@H]2[C@](C)(CC[C@H]3O[C@H](C=C(C)C)C[C@@]23C)[C@@H]1Cc1c(OC)oc(CO)c(C(=O)OC)c1=O
Output line: 0.4348

Input line: Give Th-T fluorescence of Aβ42 (sheet Fig. 7a), mean of three wells for the following compound: C=C1CCC2C(C)(CCC=C(C)C)C(O)CCC2(C)C1Cc1c(OC)oc(CO)c(C(=O)OC)c1=O (centres unmarked)
Output line: 1.051

====

- TARGET_OR_SYSTEM: Aβ42 (Homo sapiens)
- METHOD_DESCRIPTION: Th-T (thioflavin-T) assay of Aβ42 aggregation
- Format: biochemical
- COND: concentration 20, unit not given; time-course reading M145
RECORDED_METRIC: Th-T fluorescence of Aβ42 with compound, mean of three wells (Fig. 7a source data)
When you answer, write just the number.

Examples with answers:
INSERT INTO results (molecule, reported) VALUES
  ('C=C1CCC2C(C)(CCC=C(C)C)C(O)CCC2(C)C1Cc1c(OC)oc(CO)c(C)c1=O (centres unmarked) [Compound 12]', 2.206),
  ('C=C1CC[C@@H]2[C@](C)(CC[C@H]3O[C@H](C=C(C)C)C[C@@]23C)[C@@H]1Cc1c(OC)oc(CO)c(C(=O)OC)c1=O [Compound 21]', 0.9486);

Input line: Give Th-T fluorescence of Aβ42 with compound, mean of three wells (Fig. 7a source data) for the following molecule: C=C1CC[C@@H]2[C@](C)(CC[C@H]3O[C@H](C=C(C)C)C[C@@]23C)[C@@H]1Cc1c(OC)oc(CO)c(C)c1=O [Compound 20]
Output line: 2.993

Input line: Give Th-T fluorescence of Aβ42 with compound, mean of three wells (Fig. 7a source data) for the following molecule: C=C1CCC2C(C)(CCC=C(C)C)C(O)CCC2(C)C1Cc1c(OC)oc(CO)c(C(=O)OC)c1=O (centres unmarked) [Compound 13]
Output line: 1.019

Input line: Give Th-T fluorescence of Aβ42 with compound, mean of three wells (Fig. 7a source data) for the following molecule: C=C1CCC2C(C)(CCC=C(C)C)C(O)CCC2(C)C1Cc1c(OC)oc(C)c(C(=O)OC)c1=O (centres unmarked) [Compound 14]
Output line: 1.572
